- TARGET OR TEST SYSTEM: HDAC6 (Homo sapiens, UniProt Q9UBN7)
READOUT LABEL: Ki (nM)

given_smiles=O=C(NO)c1ccc(CN(Cc2cccnc2)S(=O)(=O)c2cc(F)c(F)c(F)c2F)cc1 readout_label=Ki scale_unit=nM reading=1.4

----------
- TARGET OR TEST SYSTEM: UniProtKB Q9UBN7
- Sequence (Q9UBN7 1-1215): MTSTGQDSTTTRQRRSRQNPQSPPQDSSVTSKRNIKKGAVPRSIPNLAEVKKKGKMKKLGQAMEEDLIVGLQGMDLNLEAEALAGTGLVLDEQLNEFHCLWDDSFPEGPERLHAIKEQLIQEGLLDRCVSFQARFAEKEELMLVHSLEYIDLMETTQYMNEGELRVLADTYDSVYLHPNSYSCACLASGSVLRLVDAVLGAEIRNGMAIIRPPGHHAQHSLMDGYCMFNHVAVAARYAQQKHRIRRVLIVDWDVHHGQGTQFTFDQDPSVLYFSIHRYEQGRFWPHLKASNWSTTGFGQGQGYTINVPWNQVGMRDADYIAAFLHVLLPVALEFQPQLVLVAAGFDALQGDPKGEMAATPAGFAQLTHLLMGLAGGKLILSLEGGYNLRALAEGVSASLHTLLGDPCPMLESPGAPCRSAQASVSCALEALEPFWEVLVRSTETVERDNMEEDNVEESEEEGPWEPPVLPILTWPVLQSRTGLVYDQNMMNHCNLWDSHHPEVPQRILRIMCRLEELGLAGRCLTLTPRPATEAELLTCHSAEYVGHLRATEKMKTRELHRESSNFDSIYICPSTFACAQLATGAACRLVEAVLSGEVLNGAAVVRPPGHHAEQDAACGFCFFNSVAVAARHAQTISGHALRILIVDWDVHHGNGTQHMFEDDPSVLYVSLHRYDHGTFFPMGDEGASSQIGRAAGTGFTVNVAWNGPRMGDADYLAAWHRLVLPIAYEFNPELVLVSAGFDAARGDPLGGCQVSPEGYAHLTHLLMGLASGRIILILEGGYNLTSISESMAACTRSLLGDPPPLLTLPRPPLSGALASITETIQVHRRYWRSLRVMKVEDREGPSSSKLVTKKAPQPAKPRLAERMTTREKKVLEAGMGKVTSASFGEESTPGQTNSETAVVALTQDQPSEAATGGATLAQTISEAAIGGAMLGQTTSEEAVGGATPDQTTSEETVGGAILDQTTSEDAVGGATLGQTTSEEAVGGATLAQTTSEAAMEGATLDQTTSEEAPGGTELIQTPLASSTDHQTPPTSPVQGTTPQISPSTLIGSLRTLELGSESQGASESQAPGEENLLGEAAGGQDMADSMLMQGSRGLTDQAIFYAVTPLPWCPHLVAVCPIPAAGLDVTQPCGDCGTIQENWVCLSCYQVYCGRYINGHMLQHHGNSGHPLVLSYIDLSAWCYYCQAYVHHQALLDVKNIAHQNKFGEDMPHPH
- ASSAY EXPLANATION: in vitro activity-based HDAC assay
- Type: biochemical
- STATED CONDITIONS: human HDAC isoform panel, Table 1; read-out: IC50 HDAC6
pIC50: −log10 of the molar value.
READOUT LABEL: pIC50

given_smiles=O=C(NO)c1ccc(CN(C2CC2)S(=O)(=O)c2cc(F)c(F)c(F)c2F)cc1 reading=8.05
given_smiles=O=C(NO)c1ccc(CN(Cc2cccnc2)S(=O)(=O)c2cc(F)c(F)c(F)c2F)cc1 reading=8.70

Source listed as patent US20220169598A1.
